TARGET_ENTITY: human DGKζ (Homo sapiens (Human))
TEST_METHOD_NOTES: DGKζ LIPGLO assay (extruded liposome substrate, ADP-Glo luminescence)
Format: biochemical
RUN_PARAMETERS: liposome assay; read-out: DGK zeta LIPGLO IC50
MEASURED_PARAMETER: IC50 (nM)

C[C@@H]1CN(c2nc(=O)n(C)c3ccc(C#N)nc23)[C@@H](C)CN1C(c1ccc(F)cc1)c1nc(C(C)(C)C)no1 (single isomer, unassigned) [Example 109] tested on human DGKζ (Homo sapiens (Human)) gave IC50: 190

1: CC[C@H]1CN(C(C)c2ccc(OC(F)(F)F)cc2F)[C@H](CC)CN1c1nc(=O)n(C)c2ccc(C#N)nc12 (single isomer, unassigned) [Example 39]
2: CCC(c1ccc2c(c1)OC(F)(F)O2)N1C[C@H](C)N(c2nc(=O)n(C)c3ccc(C#N)nc23)C[C@H]1CC (single isomer, unassigned) [Example 80]
Query block: For the pair 1 and 2 , which member has the lower IC50 number? // output: label of the selected item
Result block: 1
(1: 770 nM, 2: 1180 nM)

====

TARGET_ENTITY: human DGKα (Homo sapiens (Human), UniProt P23743)
Sequence (P23743 whole entry, looked up): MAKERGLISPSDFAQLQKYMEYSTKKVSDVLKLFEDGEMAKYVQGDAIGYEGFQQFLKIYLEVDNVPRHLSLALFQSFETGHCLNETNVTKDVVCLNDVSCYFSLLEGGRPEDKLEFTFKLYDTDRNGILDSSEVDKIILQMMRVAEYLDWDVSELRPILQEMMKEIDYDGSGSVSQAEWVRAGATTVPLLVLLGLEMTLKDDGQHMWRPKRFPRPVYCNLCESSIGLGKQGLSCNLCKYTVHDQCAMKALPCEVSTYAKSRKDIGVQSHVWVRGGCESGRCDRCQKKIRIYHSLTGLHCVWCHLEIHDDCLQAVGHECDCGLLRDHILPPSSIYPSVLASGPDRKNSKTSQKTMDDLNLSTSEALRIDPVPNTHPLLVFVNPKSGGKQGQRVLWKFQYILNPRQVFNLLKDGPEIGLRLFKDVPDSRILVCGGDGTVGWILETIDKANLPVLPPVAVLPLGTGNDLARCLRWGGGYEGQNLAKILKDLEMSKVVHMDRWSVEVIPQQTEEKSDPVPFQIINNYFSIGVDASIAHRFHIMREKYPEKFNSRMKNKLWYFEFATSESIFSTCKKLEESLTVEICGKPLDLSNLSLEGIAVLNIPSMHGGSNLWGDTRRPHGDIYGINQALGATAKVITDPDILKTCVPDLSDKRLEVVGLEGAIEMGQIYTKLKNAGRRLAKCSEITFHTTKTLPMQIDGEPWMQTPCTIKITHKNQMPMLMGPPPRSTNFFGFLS
TEST_METHOD_NOTES: DGKα LIPGLO assay (extruded liposome substrate, ADP-Glo luminescence)
Assay type: biochemical
RUN_PARAMETERS: liposome assay; read-out: DGK alpha LIPGLO IC50
pIC50: −log10 of the molar value.
MEASURED_PARAMETER: pIC50

Some compounds with known pIC50 results, for comparison:
Just so you know, measured pIC50 for CC[C@H]1CN(C(c2ccc(F)cc2)c2cccc(C(F)(F)F)n2)[C@H](C)CN1c1nc(=O)n(C)c2ccc(C#N)nc12 (some centres unmarked) [Example 120] came out at 5.77

Short answer for CC[C@H]1CN(C(C)c2ccc(OC(F)(F)F)c(F)c2)[C@H](CC)CN1c1nc(=O)n(C)c2ccc(C#N)nc12 (single isomer, unassigned) [Example 31] : pIC50 was 5.77

Documented pIC50 of C[C@H]1CN(C(c2ccc(F)cc2)c2ccc(C(F)(F)F)cn2)[C@H](CO)CN1c1nc(=O)n(C)c2ccc(C#N)nc12 (single isomer, unassigned) [Example 182] : 6.37

Just so you know, measured pIC50 for CC(c1ccc(OC(F)(F)F)cc1)N1C[C@H](C)N(c2nc(=O)n(C)c3ccc(C#N)nc23)C[C@H]1C (single isomer, unassigned) [Example 131] came out at 8.00

Reported pIC50 of CC[C@H]1CN(C(C)c2ccc(OCC3CC3)cc2)[C@H](CC)CN1c1nc(=O)n(C)c2ccc(C#N)nc12 (single isomer, unassigned) [Example 23] : 7.24

I: CCC(c1ccc(OC(F)(F)F)cc1)N1C[C@H](C)N(c2nc(=O)n(C)c3ccc(C#N)nc23)C[C@H]1C (single isomer, unassigned) [Example 155]
II: C[C@@H]1CN(c2nc(=O)n(C)c3ccc(C#N)nc23)[C@@H](C)CN1C(c1ccc(F)cc1)c1csc(C(F)(F)F)n1 (single isomer, unassigned) [Example 170]
III: CCC(c1ccc(OC(F)(F)F)cc1F)N1C[C@H](CC)N(c2nc(=O)n(C)c3ccc(C#N)nc23)C[C@H]1CC (some centres unmarked) [Example 11]
Query block: Put the entries in order of pIC50, starting with the largest number. Write the labels, ordered according to the request.
Result block: III, I, II
(III: 8.30, I: 6.60, II: 5.79)

a: CC[C@H]1CN(C(C)c2ccc(OC)cc2)[C@H](CC)CN1c1nc(=O)n(C)c2ccc(C#N)nc12 (single isomer, unassigned) [Example 17]
b: CC(c1ccc(Cl)cc1F)N1C[C@H](C)N(c2nc(=O)n(C)c3ccc(C#N)nc23)C[C@H]1C (single isomer, unassigned) [Example 147]
Query block: When their pIC50 values are compared, which is larger, a or b ? Respond using the label that marks the chosen record.
Result block: a
(a: 6.49, b: 5.84)

A: CC[C@@H]1CN(c2nc(=O)n(C)c3ccc(C#N)nc23)[C@@H](C)CN1C(C)c1ccc(C2CC2)cc1F (single isomer, unassigned) [Example 91]
B: CC[C@@H]1CN(c2nc(=O)n(C)c3ccc(C#N)nc23)[C@@H](C)CN1C(c1ccc(F)cc1)c1cccc(C(F)(F)F)n1 (single isomer, unassigned) [Example 65]
C: CC[C@H]1CN(C(C)c2ccc(OC(C)C)cc2)[C@H](CC)CN1c1nc(=O)n(C)c2ccc(C#N)nc12 (single isomer, unassigned) [Example 18]
D: CC(c1ccc2c(c1)OC(F)(F)O2)N1C[C@H](C)N(c2nc(=O)n(C)c3ccc(C#N)nc23)C[C@H]1C (single isomer, unassigned) [Example 167]
E: CC[C@@H]1CN(c2nc(=O)n(C)c3ccc(C#N)nc23)[C@@H](CC)CN1Cc1ccc2c(c1)OC(F)(F)O2
Query block: # rank by pIC50, ascending (min first) Return the labels ranked in the requested order, please.
Result block: D, B, E, A, C
(D: 4.75, B: 5.92, E: 6.15, A: 6.48, C: 7.52)

1: CCC(c1ccc(OC(F)(F)F)cc1F)N1C[C@H](C)N(c2nc(=O)n(C)c3ccc(C#N)nc23)C[C@H]1CC (single isomer, unassigned) [Example 85]
2: C[C@@H]1CN(c2nc(=O)n(C)c3ccc(C#N)nc23)[C@@H](C)CN1Cc1cc(F)c(F)c(F)c1
Query block: Could you determine which record has the numerically smaller pIC50? Candidates: 1 and 2 To answer, give the label that identifies your chosen option.
Result block: 2

1: COC[C@@H]1CN(c2nc(=O)n(C)c3ccc(C#N)nc23)[C@@H](C)CN1C(c1ccc(F)cc1)c1ccc(C(F)(F)F)cn1 (single isomer, unassigned) [Example 178]
2: CC(c1ccc(C2CC2)cc1F)N1C[C@H](C)N(c2nc(=O)n(C)c3ccc(C#N)nc23)C[C@H]1C (single isomer, unassigned) [Example 169]
Query block: Pick one: 1 or 2 . Which has the bigger pIC50 number? In your reply, give the label of the chosen option.
Result block: 1
(1: 6.54, 2: 5.34)

I: CC[C@@H]1CN(c2nc(=O)n(C)c3ccc(C#N)nc23)[C@@H](C)CN1C(C)c1ccc(C(F)(F)F)cc1F (single isomer, unassigned) [Example 59]
II: CC(c1ccc(OC(F)(F)F)cc1)N1C[C@H](C)N(c2nc(=O)n(C)c3ccc(C#N)nc23)C[C@H]1CO (single isomer, unassigned) [Example 184]
III: CCC(c1ccc(C(F)(F)F)cc1)N1C[C@H](C)N(c2nc(=O)n(C)c3ccc(C#N)nc23)C[C@H]1CC (single isomer, unassigned) [Example 90]
Query block: // smallest pIC50 at index 0, largest at the end Return value: ordered labels per request.
Result block: II, I, III

====

TARGET_ENTITY: human DGKζ (Homo sapiens (Human))
TEST_METHOD_NOTES: DGKζ LIPGLO assay (extruded liposome substrate, ADP-Glo luminescence)
Format: biochemical
RUN_PARAMETERS: liposome assay; read-out: DGK zeta LIPGLO IC50
pIC50: −log10 of the molar value.
MEASURED_PARAMETER: pIC50

The compound listed as C[C@@H]1CN(c2nc(=O)n(C)c3ccc(C#N)nc23)[C@@H](C)CN1C(c1ccc(F)cc1)c1csc(C(F)(F)F)n1 (single isomer, unassigned) [Example 171] has a reported pIC50 of 6.25

I: CC[C@H]1CN(C(C)c2ccc(CN3CCC[C@@H](O)C3)cc2)[C@H](CC)CN1c1nc(=O)n(C)c2ccc(C#N)nc12 (stereo partly drawn) [Example 290]
II: CC[C@H]1CN(C(c2ccc(F)cc2)c2ccc(C(F)(F)F)cn2)[C@H](C)CN1c1nc(=O)n(C)c2ccc(C#N)nc12 (stereo partly drawn) [Example 115]
Query block: Parameter check: reported pIC50 is higher for which label, I or II ? Reply with the label of the item you choose.
Result block: II
(II: 5.61, I: 4.24)

====

TARGET_ENTITY: human DGKζ (Homo sapiens (Human), UniProt Q13574)
Sequence (Q13574 other isoform, or with tags, fused parts or gaps): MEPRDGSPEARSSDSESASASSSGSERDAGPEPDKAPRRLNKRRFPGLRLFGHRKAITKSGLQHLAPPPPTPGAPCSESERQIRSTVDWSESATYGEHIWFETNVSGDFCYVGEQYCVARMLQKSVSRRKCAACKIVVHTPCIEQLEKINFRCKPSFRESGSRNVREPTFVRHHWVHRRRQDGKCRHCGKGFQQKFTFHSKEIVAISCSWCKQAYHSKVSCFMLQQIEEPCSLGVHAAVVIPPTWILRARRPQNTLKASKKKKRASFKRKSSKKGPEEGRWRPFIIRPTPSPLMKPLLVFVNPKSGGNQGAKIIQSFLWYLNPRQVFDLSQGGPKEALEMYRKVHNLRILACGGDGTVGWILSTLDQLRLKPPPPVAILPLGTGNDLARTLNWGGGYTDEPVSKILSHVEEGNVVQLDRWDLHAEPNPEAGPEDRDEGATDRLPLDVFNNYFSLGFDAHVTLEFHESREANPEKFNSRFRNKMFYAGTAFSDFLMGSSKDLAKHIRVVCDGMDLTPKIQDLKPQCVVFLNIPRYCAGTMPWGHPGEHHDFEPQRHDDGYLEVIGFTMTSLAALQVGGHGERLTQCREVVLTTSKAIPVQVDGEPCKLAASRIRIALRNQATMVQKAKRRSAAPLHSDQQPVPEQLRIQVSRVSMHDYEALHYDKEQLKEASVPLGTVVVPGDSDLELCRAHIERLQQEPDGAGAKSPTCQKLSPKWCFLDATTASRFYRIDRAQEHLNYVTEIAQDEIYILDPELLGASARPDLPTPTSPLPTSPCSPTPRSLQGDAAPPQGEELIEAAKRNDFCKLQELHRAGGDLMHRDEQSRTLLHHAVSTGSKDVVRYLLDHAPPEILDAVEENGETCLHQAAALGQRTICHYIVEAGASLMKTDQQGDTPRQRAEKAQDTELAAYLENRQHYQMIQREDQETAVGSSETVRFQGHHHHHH
TEST_METHOD_NOTES: DGKζ LIPGLO assay (extruded liposome substrate, ADP-Glo luminescence)
Type: biochemical
RUN_PARAMETERS: liposome assay; read-out: DGK zeta LIPGLO IC50
MEASURED_PARAMETER: IC50 (nM)

Solved cases below.
IC50 reading for CC[C@H]1CN(C(C)c2ccc(CN3C[C@@H](C)O[C@@H](C)C3)cc2)[C@H](CC)CN1c1nc(=O)n(C)c2ccc(C#N)nc12 (stereo partly drawn) [Example 292] : 1010

// sample CC[C@H]1CN(C(c2ccc(F)cc2)c2cccc(C(F)F)n2)[C@H](CC)CN1c1nc(=O)n(C)c2ccc(C#N)nc12 (stereo partly drawn) [Example 258] , its IC50 was 360

Please fill in: IC50 reported for C[C@@H]1CN(c2nc(=O)n(C)c3ccc(C#N)nc23)[C@@H](C)CN1Cc1cc(F)c(F)cc1Cl [Example 134] = 780

Briefly, IC50 measured for CC[C@@H]1CN(c2nc(=O)n(C)c3ccc(C#N)nc23)[C@@H](CC)CN1Cc1ccc(OCC2CC2)cc1 [Example 185] : 610

A: CC(c1ccc(OC(F)F)cc1)N1C[C@H](C)N(c2nc(=O)n(C)c3ccc(C#N)nc23)C[C@H]1C (single isomer, unassigned) [Example 156]
B: CC(c1ccc(OC(F)(F)F)c(F)c1)N1C[C@H](C)N(c2nc(=O)n(C)c3ccc(C#N)nc23)C[C@H]1C (single isomer, unassigned) [Example 160]
Query block: Parameter check: reported IC50 is higher for which label, A or B ? Bench note: the answer is the label of the chosen record.
Result block: B
(B: 250 nM, A: 120 nM)

This collection of values is drawn from patent US11584747B2.
